target: Melanocortin receptor 4 (Homo sapiens, UniProt P32245); assay: Displacement of [125I]NDP-alpha-MSH from human MC4 receptor expressed in CHO cells; format: cell-based
Sequence (P32245 whole entry): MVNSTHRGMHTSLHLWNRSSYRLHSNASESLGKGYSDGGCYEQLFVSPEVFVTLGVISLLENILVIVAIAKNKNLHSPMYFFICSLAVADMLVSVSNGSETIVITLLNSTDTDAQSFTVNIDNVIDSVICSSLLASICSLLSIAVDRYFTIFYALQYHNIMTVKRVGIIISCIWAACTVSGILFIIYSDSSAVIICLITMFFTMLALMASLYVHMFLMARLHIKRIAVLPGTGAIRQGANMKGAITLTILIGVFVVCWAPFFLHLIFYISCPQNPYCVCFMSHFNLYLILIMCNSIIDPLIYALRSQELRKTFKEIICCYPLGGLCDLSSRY
quantity: IC50 (µM)

INSERT INTO assay_data (molecule, assay_target, unit_symbol, reported) VALUES
  ('CC(C)N(CC(C1CCCCC1)N1CCN(C(=O)[C@@H]2CN(C(C)(C)C)C[C@H]2c2ccc(F)cc2F)CC1)C(=O)c1cnn(C(C)C)c1 (single isomer, unassigned; diastereomer 1)', 'Melanocortin receptor 4 (Homo sapiens, UniProt P32245)', 'µM', 0.018);

A = CC(C)N(CC(C1CCCCC1)N1CCN(C(=O)[C@@H]2CN(C(C)(C)C)C[C@H]2c2ccc(F)cc2F)CC1)C(=O)c1cccnn1 (single isomer, unassigned; diastereomer 1)
B = CC(C)CC(CN(C(C)C)S(C)(=O)=O)N1CCN(C(=O)[C@@H]2CN(C(C)(C)C)C[C@H]2c2ccc(F)cc2F)CC1 (single isomer, unassigned; diastereomer 2)
C = CC(C)NCC(C1CCCCC1)N1CCN(C(=O)[C@@H]2CN(C(C)(C)C)C[C@H]2c2ccc(F)cc2F)CC1 (some centres undefined)
-- ask Sort the molecules on IC50; start with the lowest figure. Give your ranking as a list of the labels in the requested order.
-- reply A, B, C
(A: 0.018 µM, B: 0.027 µM, C: 0.31 µM)
